Every entry's value here was drawn from patent US12622968B2.

# PROTOCOL NOTES: Single dose oral capsule pharmacokinetics of BHV-3500 in dogs (plasma LC-MS/MS)
# Format: in vivo, beagle dogs
# STATED CONDITIONS: female, beagle, dog, plasma, po, 20 mg, Group 2, oral capsule, 20 mg BHV-3500 in 900 mg vehicle of Formulation 2 (SEDDS excipients); individual dogs; read-out: AUC0-4 hr
# Protocol: The pharmacokinetics (PK) of BHV-3500 after a single oral capsule of BHV-3500 in dogs were investigated. After each dose, blood samples (approximately 3 mL from the jugular vein) for determination of plasma levels of BHV-3500 were obtained from of each dog at six time points (pre-dose; 15, 30, and 60 minutes and 2 and 4 hours post-dose. EDTA was used as the anticoagulant. Plasma samples were frozen at approximately −70′C until analyzed. […]

COMPOUND STRUCTURE STRING: Cc1cc(C[C@@H](NC(=O)N2CCC(c3cc4ccccc4[nH]c3=O)CC2)C(=O)N2CCN(C3CCN(C)CC3)CC2)cc2cn[nH]c12
AUC(0-t) [ng·h/mL]: 19.8

* * *

# PROTOCOL NOTES: Single dose oral capsule pharmacokinetics of BHV-3500 in dogs (plasma LC-MS/MS)
# Assay type: in vivo, beagle dogs
# STATED CONDITIONS: female, beagle, dog, plasma, po, 50 mg, Group 5, oral capsule, 50 mg BHV-3500 in 900 mg vehicle of Formulation 2 (SEDDS excipients); average; read-out: AUC0-4 hr
# Experimental: The pharmacokinetics (PK) of BHV-3500 after a single oral capsule of BHV-3500 in dogs were investigated. After each dose, blood samples (approximately 3 mL from the jugular vein) for determination of plasma levels of BHV-3500 were obtained from of each dog at six time points (pre-dose; 15, 30, and 60 minutes and 2 and 4 hours post-dose. EDTA was used as the anticoagulant. Plasma samples were frozen at approximately −70′C until analyzed. […]

COMPOUND STRUCTURE STRING: Cc1cc(C[C@@H](NC(=O)N2CCC(c3cc4ccccc4[nH]c3=O)CC2)C(=O)N2CCN(C3CCN(C)CC3)CC2)cc2cn[nH]c12
AUC(0-t) (ng·h/mL): 70.6

* * *

# PROTOCOL NOTES: Single dose oral capsule pharmacokinetics of BHV-3500 in dogs (plasma LC-MS/MS)
# Format: in vivo, beagle dogs
# STATED CONDITIONS: female, beagle, dog, plasma, po, 20 mg, Group 2, oral capsule, 20 mg BHV-3500 in 900 mg vehicle of Formulation 2 (SEDDS excipients); 1 h post-dose; average; read-out: BHV-3500 Concentration in Dog Plasma

COMPOUND STRUCTURE STRING: Cc1cc(C[C@@H](NC(=O)N2CCC(c3cc4ccccc4[nH]c3=O)CC2)C(=O)N2CCN(C3CCN(C)CC3)CC2)cc2cn[nH]c12
concentration at 1 h [ng/mL]: 2.57

* * *

# PROTOCOL NOTES: Single dose oral capsule pharmacokinetics of BHV-3500 in dogs (plasma LC-MS/MS)
# Type: in vivo, beagle dogs
# STATED CONDITIONS: female, beagle, dog, plasma, po, 20 mg, Group 3, oral capsule, 20 mg BHV-3500 in 25 mg DDM; 4 h post-dose; average; read-out: BHV-3500 Concentration in Dog Plasma
PROPERTY NAME: concentration at 4 h (ng/mL)

COMPOUND: Cc1cc(C[C@@H](NC(=O)N2CCC(c3cc4ccccc4[nH]c3=O)CC2)C(=O)N2CCN(C3CCN(C)CC3)CC2)cc2cn[nH]c12 [BHV-3500]
PROPERTY NAME: concentration at 4 h
READOUT VALUE: 2.18

* * *

# PROTOCOL NOTES: Single dose oral capsule pharmacokinetics of BHV-3500 in dogs (plasma LC-MS/MS)
# Assay type: in vivo, beagle dogs
# STATED CONDITIONS: female, beagle, dog, plasma, po, 20 mg, Group 3, oral capsule, 20 mg BHV-3500 in 25 mg DDM; median; read-out: Tmax

COMPOUND STRUCTURE STRING: Cc1cc(C[C@@H](NC(=O)N2CCC(c3cc4ccccc4[nH]c3=O)CC2)C(=O)N2CCN(C3CCN(C)CC3)CC2)cc2cn[nH]c12
OUTPUT UNIT: h
Tmax: 2

* * *

# PROTOCOL NOTES: Single dose oral capsule pharmacokinetics of BHV-3500 in dogs (plasma LC-MS/MS)
# Assay type: in vivo, beagle dogs
# STATED CONDITIONS: female, beagle, dog, plasma, po, 50 mg, Group 5, oral capsule, 50 mg BHV-3500 in 900 mg vehicle of Formulation 2 (SEDDS excipients); 1 h post-dose; average; read-out: BHV-3500 Concentration in Dog Plasma

COMPOUND STRUCTURE STRING: Cc1cc(C[C@@H](NC(=O)N2CCC(c3cc4ccccc4[nH]c3=O)CC2)C(=O)N2CCN(C3CCN(C)CC3)CC2)cc2cn[nH]c12
concentration at 1 h, ng/mL: 11.5

* * *

# PROTOCOL NOTES: Single dose oral capsule pharmacokinetics of BHV-3500 in dogs (plasma LC-MS/MS)
# Assay type: in vivo, beagle dogs
# STATED CONDITIONS: female, beagle, dog, plasma, po, 50 mg, Group 4, oral capsule, 50 mg BHV-3500, no vehicle; 2 h post-dose; individual dogs; read-out: BHV-3500 Concentration in Dog Plasma

COMPOUND: Cc1cc(C[C@@H](NC(=O)N2CCC(c3cc4ccccc4[nH]c3=O)CC2)C(=O)N2CCN(C3CCN(C)CC3)CC2)cc2cn[nH]c12 [BHV-3500]
OUTPUT UNIT: ng/mL
concentration at 2 h: 7.57

* * *

# PROTOCOL NOTES: Single dose oral capsule pharmacokinetics of BHV-3500 in dogs (plasma LC-MS/MS)
# Format: in vivo, beagle dogs
# STATED CONDITIONS: female, beagle, dog, plasma, po, 20 mg, Group 3, oral capsule, 20 mg BHV-3500 in 25 mg DDM; 0.5 h post-dose; individual dogs
PROPERTY NAME: concentration at 0.5 h (ng/mL)

MOLECULE: Cc1cc(C[C@@H](NC(=O)N2CCC(c3cc4ccccc4[nH]c3=O)CC2)C(=O)N2CCN(C3CCN(C)CC3)CC2)cc2cn[nH]c12 [BHV-3500]
READOUT VALUE: 14

* * *

# PROTOCOL NOTES: Single dose oral capsule pharmacokinetics of BHV-3500 in dogs (plasma LC-MS/MS)
# Type: in vivo, beagle dogs
# STATED CONDITIONS: female, beagle, dog, plasma, po, 50 mg, Group 6, oral capsule, 50 mg BHV-3500 in 25 mg DDM; 4 h post-dose; average; read-out: BHV-3500 Concentration in Dog Plasma

MOLECULE: Cc1cc(C[C@@H](NC(=O)N2CCC(c3cc4ccccc4[nH]c3=O)CC2)C(=O)N2CCN(C3CCN(C)CC3)CC2)cc2cn[nH]c12 [BHV-3500]
concentration at 4 h, ng/mL: 8.67

* * *

# PROTOCOL NOTES: Single dose oral capsule pharmacokinetics of BHV-3500 in dogs (plasma LC-MS/MS)
# Type: in vivo, beagle dogs
# STATED CONDITIONS: female, beagle, dog, plasma, po, 20 mg, Group 3, oral capsule, 20 mg BHV-3500 in 25 mg DDM; 1 h post-dose; individual dogs; read-out: BHV-3500 Concentration in Dog Plasma

MOLECULE: Cc1cc(C[C@@H](NC(=O)N2CCC(c3cc4ccccc4[nH]c3=O)CC2)C(=O)N2CCN(C3CCN(C)CC3)CC2)cc2cn[nH]c12 [BHV-3500]
concentration at 1 h [ng/mL]: 3.56

* * *

# PROTOCOL NOTES: Single dose oral capsule pharmacokinetics of BHV-3500 in dogs (plasma LC-MS/MS)
# Assay type: in vivo, beagle dogs
# STATED CONDITIONS: female, beagle, dog, plasma, po, 20 mg, Group 3, oral capsule, 20 mg BHV-3500 in 25 mg DDM; average; read-out: AUC0-4 hr

COMPOUND STRUCTURE STRING: Cc1cc(C[C@@H](NC(=O)N2CCC(c3cc4ccccc4[nH]c3=O)CC2)C(=O)N2CCN(C3CCN(C)CC3)CC2)cc2cn[nH]c12
AUC(0-t) / ng·h/mL: 48.1
